molecular target: UniProtKB Q92633; assay: Antagonist activity at human LPA1 receptor expressed in RH7777 cells assessed as inhibition of LPA-induced calcium mobilization by Fura-2 AM probe-based fluorometric analysis; assay type: functional, cell-based
property label: pIC50
One number for each entry, as −log10 of the molar value.

[Q] Which measured pIC50 belongs to CCCCCC/C=C\CCCCCCCC(=O)OC[C@@H](O)CC(Br)P(=O)(O)O (stereo partly specified) , tested on UniProtKB Q92633?
[A] 5.82

---

biological target: UniProt:Q99677; test: Antagonist activity at human LPA4 receptor expressed in CHO cells assessed as inhibition of LPA-induced calcium mobilization by Fura-2 AM probe-based fluorometric analysis; format: functional, cell-based
property label: pIC50
Give bare numbers, as −log10 of the molar value.

[Q] Fill blank: measured pIC50 of the molecule CCCCCC/C=C\CCCCCCCC(=O)OC[C@@H](O)CC(Br)P(=O)(O)O (stereo partly specified) is ____.
[A] 6.58

---

target: UniProt Q9UBY5; experiment: Antagonist activity at human LPA3 receptor expressed in RH7777 cells assessed as inhibition of LPA-induced calcium mobilization by Fura-2 AM probe-based fluorometric analysis; assay type: functional, cell-based
property label: pIC50
Numbers only, as −log10 of the molar value.

[Q] What pIC50 appears in the records for this compound with UniProt Q9UBY5? CCCCCC/C=C\CCCCCCCC(=O)OC[C@@H](O)CC(Br)P(=O)(O)O (stereo partly specified)
[A] 5.94

---

molecular target: Lysophosphatidic acid receptor 3 (Homo sapiens, UniProt Q9UBY5); test: Agonist activity at human LPA3 receptor transfected in HEK293T cells after 30 mins by GTP[gamma-35S] binding assay; format: cell-based, HEK-293T
property label: EC50 (nM)
Numbers only, in nM.

[Q] Provide value of EC50 for this record tested with Lysophosphatidic acid receptor 3 (Homo sapiens, UniProt Q9UBY5): CCCCCCCC/C=C\CCCCCCCC(=O)OC[C@@H](COP(O)(O)=S)OC
[A] 276

---

target: UniProt Q9HBW0; experiment: Antagonist activity at human LPA2 receptor expressed in rat B103 cells assessed as inhibition of LPA-induced calcium mobilization preincubated for 30 mins followed by LPA induction by FLIPR Calcium 4 dye-based fluorometric analysis; assay type: functional, cell-based
Sequence (Q9HBW0 whole entry): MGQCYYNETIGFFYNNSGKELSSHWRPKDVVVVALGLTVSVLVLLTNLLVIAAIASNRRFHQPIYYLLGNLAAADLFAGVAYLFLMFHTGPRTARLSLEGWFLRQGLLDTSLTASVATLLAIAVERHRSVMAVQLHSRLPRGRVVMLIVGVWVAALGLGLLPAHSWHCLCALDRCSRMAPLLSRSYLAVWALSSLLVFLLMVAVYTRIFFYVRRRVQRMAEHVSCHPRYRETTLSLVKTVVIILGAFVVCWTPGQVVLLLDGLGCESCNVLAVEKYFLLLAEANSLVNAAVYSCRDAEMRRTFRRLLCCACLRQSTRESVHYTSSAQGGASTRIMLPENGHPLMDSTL
pIC50: −log10 of the molar value.
property label: pIC50

[Q] Consider the molecule shown here: Cc1noc(-c2ccc(-c3ccc(CC(=O)O)cc3)cc2)c1NC(=O)O[C@H](C)c1ccccc1 What is its recorded pIC50?
[A] < 5.10

---

target: Lysophosphatidic acid receptor 1 (Homo sapiens, UniProt Q92633); test: Agonist activity at human LPA1 receptor transfected in RH7777 cells assessed as mobilization of Ca2+ by fluorometric analysis; type: functional, cell-based
Sequence (Q92633 whole entry): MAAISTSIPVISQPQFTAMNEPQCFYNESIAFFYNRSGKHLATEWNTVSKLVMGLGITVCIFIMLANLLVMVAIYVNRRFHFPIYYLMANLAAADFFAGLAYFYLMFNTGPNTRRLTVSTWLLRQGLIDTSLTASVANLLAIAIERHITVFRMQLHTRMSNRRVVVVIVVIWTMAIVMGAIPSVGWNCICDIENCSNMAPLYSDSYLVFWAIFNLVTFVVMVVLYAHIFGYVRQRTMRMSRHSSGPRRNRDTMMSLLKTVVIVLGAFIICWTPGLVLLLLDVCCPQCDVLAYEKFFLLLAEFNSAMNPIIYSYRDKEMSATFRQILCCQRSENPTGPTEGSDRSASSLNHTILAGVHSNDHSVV
Please respond with reported EC50 for every item in the list.
Give bare numbers, in nM.

State recorded EC50 for all listed molecules.
1. CCCCCCCC/C=C\CCCCCCCCOC[C@@H](COP(O)(O)=S)OC
2. CCCCCCCC/C=C\CCCCCCCCOC[C@H](COP(O)(O)=S)OC

[A]
571
790

---

molecular target: Lysophosphatidic acid receptor 1 (Homo sapiens); test: Antagonist activity at human LPA1 receptor expressed in CHO cells assessed as inhibition of LPA-induced calcium mobilization preincubated with protein followed by LPA induction measured for 2 mins by Fluo-4 dye-based FLIPR assay; type: functional, cell-based
property label: pIC50
Numbers only, as −log10 of the molar value.

[Q] Please look up its pIC50: COc1ccc([C@@H](O)C(=O)N(CCCc2ccccc2)Cc2nc(C(=O)NS(C)(=O)=O)c(C)s2)c(F)c1
[A] 8.18

---

Target: Lysophosphatidic acid receptor 3 (Homo sapiens)
Sequence (Q9UBY5 whole entry): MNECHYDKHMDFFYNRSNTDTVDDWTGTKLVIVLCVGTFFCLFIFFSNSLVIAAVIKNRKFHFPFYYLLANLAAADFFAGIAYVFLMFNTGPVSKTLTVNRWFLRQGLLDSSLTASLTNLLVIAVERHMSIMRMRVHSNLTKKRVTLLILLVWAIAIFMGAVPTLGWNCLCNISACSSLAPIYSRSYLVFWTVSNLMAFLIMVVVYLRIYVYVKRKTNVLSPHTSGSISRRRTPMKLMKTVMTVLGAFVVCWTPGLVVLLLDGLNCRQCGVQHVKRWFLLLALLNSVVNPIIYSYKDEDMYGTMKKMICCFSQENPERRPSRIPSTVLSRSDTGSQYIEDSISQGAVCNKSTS
Test: Antagonist activity at human LPA3 receptor expressed in CHO cells assessed as inhibition of LPA-induced calcium mobilization preincubated for 30 mins followed by LPA induction by FLIPR Calcium 4 dye-based fluorometric analysis
Type: functional, cell-based
property label: IC50

>  <sample smiles>
Cc1noc(-c2ccc(-c3ccc(CC(=O)O)cc3)cc2)c1NC(=O)O[C@H](C)c1ccccc1Cl

>  <property label>
IC50

>  <value observed>
1600 nM

$$$$

Working through the 2 molecules below one at a time, give IC50 for each.
1. Cc1noc(-c2ccc(-c3ccc(CC(=O)O)cc3)cc2)c1NC(=O)O[C@H](C)c1ccccc1
2. Cc1nsc(-c2ccc(-c3ccc(CC(=O)O)cc3)cc2)c1NC(=O)O[C@H](C)c1ccccc1Cl

[A]
1: > 8000 nM; 2: > 500 nM

---

biological target: Lysophosphatidic acid receptor 3 (Homo sapiens); assay: Antagonist activity at human LPA3 receptor transfected in HEK293T cells; type: cell-based, HEK-293T
property label: IC50 (µM)
Answers are plain numbers, in µM.

[Q] Form field - read-out: IC50; system: Lysophosphatidic acid receptor 3 (Homo sapiens); submitted item: CCCCCCCC/C=C\CCCCCCCC(=O)N[C@H](COP(=O)(O)O)Cc1ccc(OCc2ccccc2)cc1
[A] 6.45

---

molecular target: UniProt:Q9H1C0; assay: Antagonist activity at human LPA5 receptor expressed in rat B103 cells assessed as inhibition of LPA-induced calcium mobilization preincubated for 30 mins followed by LPA induction by FLIPR Calcium 4 dye-based fluorometric analysis; assay type: functional, cell-based
Sequence (Q9H1C0 whole entry): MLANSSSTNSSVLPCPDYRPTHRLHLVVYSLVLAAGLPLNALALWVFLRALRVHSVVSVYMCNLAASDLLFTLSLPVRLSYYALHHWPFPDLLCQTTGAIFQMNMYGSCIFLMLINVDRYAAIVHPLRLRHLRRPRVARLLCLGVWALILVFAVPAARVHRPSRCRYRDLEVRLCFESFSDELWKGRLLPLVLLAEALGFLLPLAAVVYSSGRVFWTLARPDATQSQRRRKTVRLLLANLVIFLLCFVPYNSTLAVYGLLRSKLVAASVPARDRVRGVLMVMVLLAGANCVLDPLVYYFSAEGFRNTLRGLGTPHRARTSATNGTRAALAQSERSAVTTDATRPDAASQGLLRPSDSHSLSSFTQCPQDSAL
property label: IC50

[Q] // returns reported IC50 for input Cc1noc(-c2ccc(-c3ccc(CC(=O)O)cc3)cc2)c1NC(=O)O[C@H](C)c1ccccc1
[A] > 8 µM

---

Exercise: state measured EC50 for each of the compounds provided.
molecular target: Lysophosphatidic acid receptor 1 (Homo sapiens); assay: Agonist activity at human LPA1 receptor transfected in HEK293T cells after 30 mins by GTP[gamma-35S] binding assay; assay type: cell-based, HEK-293T
Answers are plain numbers, in nM.

>  <sample smiles>
CCCCCCCC/C=C\CCCCCCCC(=O)NCCSP(=O)(O)O

>  <reading unit>
nM

>  <value observed>
318

$$$$

Continue with the next compound.
[Q] # query: EC50 of entry CCCCCCCC/C=C\CCCCCCCC(=O)NCCOP(O)(O)=S
[A] 40

---

target: Lysophosphatidic acid receptor 4 (Homo sapiens, UniProt Q99677); assay: Antagonist activity at human LPA4 receptor expressed in rat B103 cells assessed as inhibition of LPA-induced calcium mobilization preincubated for 30 mins followed by LPA induction by FLIPR Calcium 4 dye-based fluorometric analysis; assay type: functional, cell-based
Sequence (Q99677 whole entry): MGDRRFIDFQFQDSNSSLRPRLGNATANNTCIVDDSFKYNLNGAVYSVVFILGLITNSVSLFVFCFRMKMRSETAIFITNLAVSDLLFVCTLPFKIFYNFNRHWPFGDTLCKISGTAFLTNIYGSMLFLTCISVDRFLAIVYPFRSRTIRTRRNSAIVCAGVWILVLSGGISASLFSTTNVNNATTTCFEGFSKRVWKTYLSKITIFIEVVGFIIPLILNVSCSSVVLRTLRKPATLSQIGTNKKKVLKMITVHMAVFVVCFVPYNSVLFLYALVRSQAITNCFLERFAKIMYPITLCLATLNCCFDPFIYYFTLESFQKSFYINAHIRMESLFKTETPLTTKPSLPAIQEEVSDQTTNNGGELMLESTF
pIC50: −log10 of the molar value.
property label: pIC50

[Q] Quick one: pIC50 for Cc1noc(-c2ccc(-c3ccc(CC(=O)O)cc3)cc2)c1NC(=O)O[C@H](C)c1ccccc1 ?
[A] < 5.10

---

Task for the reader: assign each of the following molecules its reported EC50.
target: Lysophosphatidic acid receptor 3 (Homo sapiens, UniProt Q9UBY5); assay: Agonist activity at human LPA3 receptor transfected in RH7777 cells assessed as mobilization of Ca2+ by fluorometric analysis; assay type: functional, cell-based
Numbers only, in nM.

>  <sample smiles>
CCCCCCCC/C=C\CCCCCCCCOC[C@@H](COP(O)(O)=S)OC

>  <system>
Lysophosphatidic acid receptor 3 (Homo sapiens, UniProt Q9UBY5)

>  <EC50 (nM)>
80

$$$$

Alright, here's another molecule for you.
[Q] Please give the measured EC50 for this molecule: CCCCCCCC/C=C\CCCCCCCCOC[C@H](COP(O)(O)=S)OC
[A] 62
